Recorded Ka for the following compounds
# measurement_description: Association constant of compound was evaluated at pH 9
# Format: ADME
The figure you give is taken to be in M⁻¹; do not add the unit.

>>> obs_value("CCCCC/C=C/CCC(=O)N[C@@H]1[C@H](Oc2c3cc4cc2Oc2ccc(cc2Cl)CC2NC(=O)[C@H](N)c5ccc(O)c(c5)Oc5cc(O)cc(c5)C(NC2=O)C(=O)NC4C(=O)NC2C(=O)/N=C(\\Cc4ccc(c(Cl)c4)O3)C(=O)N[C@H](C(=O)O)c3cc(O)cc(O[C@H]4O[C@H](CO)[C@@H](O)[C@@H](O)[C@@H]4O)c3-c3cc2ccc3O)O[C@@H](CO)[C@@H](O)[C@@H]1O (stereo partly drawn)")
60000

Here is the next item to consider.
Input: Consider the compound `CC(=O)N[C@@H]1[C@H](O[C@@H]2c3ccc(c(Cl)c3)Oc3cc4cc(c3O)Oc3ccc(cc3Cl)C[C@H]3NC(=O)[C@H](N)c5ccc(O)c(c5)Oc5cc(O)cc(c5)[C@H](NC3=O)C(=O)N[C@H]4C(=O)N[C@H]3C(=O)N[C@@H]2C(=O)N[C@H](C(=O)O)c2cc(O)cc(O[C@H]4O[C@H](CO)[C@@H](O)[C@@H](O)[C@@H]4O)c2-c2cc3ccc2O)O[C@@H](CO)[C@@H](O)[C@@H]1O` and give its recorded Ka.
Output: 90000
